test system: Respiratory syncytial virus; test: Antiviral activity against Respiratory syncytial virus long A infected in human Hep2 cells assessed as inhibition of viral replication measured after 3 days by plaque reduction assay; format: functional, organism-based; settings: HEp-2, 72 h
Readout: EC50

Sure, the documented EC50 for CC(C)(C(=O)N1CCN(c2cc(NCCN)c3ccccc3n2)CC1)c1ccccc1 is < 0.1 µM

----------
experiment: Antiviral activity against Respiratory syncytial virus long A infected in human Hep2 cells assessed as reduction in virus-induced cytopathic effect measured after 6 days by CCK8 assay; format: functional, cell-based, Respiratory syncytial virus type A; conditions: HEp-2, 144 h
Please note: EC50 exactly at 0.08 µM is 0 (no). Only values below 0.08 µM get 1 (yes).

In [3]: df
Out[3]:
                         compound_structure  discrete_label
0  Cc1cccc(CC(=O)N2CCN(c3cc(NCCN)c4ccccc4n3)CC2)c1         1 (yes)
1  NCCNc1cc(N2CCN(C(=O)C3CCCCC3)CC2)nc2ccccc12          0 (no)
2    NCCNc1cc(N2CCN(c3ccccc3)CC2)nc2ccccc12          0 (no)

Consider the compound NCCNc1cc(N2CCN(C(=O)Cc3ccc(Cl)c(Cl)c3)CC2)nc2ccccc12 . Is its EC50 strictly less than 0.08 µM?
0 (no)

Consider the compound NCCNc1cc(N2CCN(C(=O)Cc3ccccc3Cl)CC2)nc2ccccc12 . Is its EC50 strictly less than 0.08 µM?
1 (yes)

Consider the compound NCCNc1cc(N2CCN(C(=O)Cc3cccc(Cl)c3)CC2)nc2ccccc12 . Is its EC50 strictly less than 0.08 µM?
1 (yes)

----------
assay: Antiviral activity against Respiratory syncytial virus long A infected in human Hep2 cells assessed as reduction in virus-induced cytopathic effect measured after 6 days by CCK8 assay; assay type: functional, cell-based, Respiratory syncytial virus type A; details: HEp-2, 144 h
Readout: EC50 (µM)
Only the number, expressed in µM, is required.

Sample records with EC50:
In [3]: df
Out[3]:
                         compound_structure  readout  numeric_result
0  NCCNc1cc(N2CCN(C(=O)c3ccccc3)CC2)nc2ccccc12     EC50            0.57
1  NCCNc1cc(N2CCN(C(=O)Cc3ccc(Cl)cc3)CC2)nc2ccccc12     EC50           0.058
2  CC(C)(C(=O)N1CCN(c2cc(NCCN)c3ccc(Cl)cc3n2)CC1)c1ccccc1     EC50            2.19

Sure, the documented EC50 for NCCNc1cc(N2CCN(C(=O)Cc3ccccc3F)CC2)nc2ccccc12 is 0.089

Sure, the documented EC50 for CC(C)C(=O)N1CCN(c2cc(NCCN)c3ccccc3n2)CC1 is 0.847

Sure, the documented EC50 for CCC(=O)N1CCN(c2cc(NCCN)c3ccccc3n2)CC1 is 3.09

Sure, the documented EC50 for NCCNc1cc(N2CCN(c3ccccc3Cl)CC2)nc2ccccc12 is 2.01

Sure, the documented EC50 for Cc1ccccc1CC(=O)N1CCN(c2cc(NCCN)c3ccccc3n2)CC1 is 0.029

Sure, the documented EC50 for CCC(CC)(C(=O)N1CCN(c2cc(NCCN)c3ccccc3n2)CC1)c1ccccc1 is 0.624

Sure, the documented EC50 for N#Cc1cccc(CC(=O)N2CCN(c3cc(NCCN)c4ccccc4n3)CC2)c1 is 0.225

----------
assay: Oral availability in Wistar rat at […] by LC-MS/MS analysis; assay type: ADME, organism-based; conditions: in vivo
Quick list: bioavailability per entry.
Only the number, expressed in %, is required.

                         compound_structure          readout  numeric_result
0  CNCCNc1cc(N2CCN(C(=O)C(C)(C)c3ccccc3)CC2)nc2ccccc12  bioavailability              41

Next item in the queue.
Sure, the documented bioavailability for CC(C)(C(=O)N1CCN(c2cc(NCCN)c3ccccc3n2)CC1)c1ccccc1 is 57

----------
Quick list: EC50 per entry.
test: Antiviral activity against Respiratory syncytial virus long A infected in human Hep2 cells assessed as reduction in virus-induced cytopathic effect measured after 6 days by CCK8 assay; assay type: functional, cell-based, Respiratory syncytial virus type A; details: HEp-2, 144 h
Only the number, expressed in nM, is required.

In [3]: df
Out[3]:
                                   compound  measurement_unit  numeric_result
0  NCCNc1cc(N2CCN(C(=O)CCc3ccccc3)CC2)nc2ccccc12                nM             464
1  NCCNc1cc(N2CCN(C(=O)C3(c4ccccc4)CC3)CC2)nc2ccccc12                nM              17
2  NCCNc1cc(N2CCN(S(=O)(=O)c3ccccc3)CC2)nc2ccccc12                nM            1170
3  COc1cccc(CC(=O)N2CCN(c3cc(NCCN)c4ccccc4n3)CC2)c1                nM              98
4  CC(=O)NCCNc1cc(N2CCN(C(=O)C(C)(C)c3ccccc3)CC2)nc2ccccc12                nM           15600

Sure, the documented EC50 for NCCNc1cc(N2CCN(C(=O)Cc3ccccc3)CC2)nc2ccccc12 is 79

Sure, the documented EC50 for NCC(O)CNc1cc(N2CCC(c3ccccc3)CC2)nc2ccccc12 (stereo not given) is 759

Sure, the documented EC50 for CC(C)(C(=O)N1CCN(c2cc(NCCN)c3c(Cl)cccc3n2)CC1)c1ccccc1 is 7960

Sure, the documented EC50 for NCCNc1cc(N2CCN(C(=O)Cc3ccc(F)cc3)CC2)nc2ccccc12 is 95

Sure, the documented EC50 for NCCNc1cc(N2CCN(C(=O)C3(c4ccccc4)CCC3)CC2)nc2ccccc12 is 86

----------
Quick list: EC50 per entry.
assay: Antiviral activity against Respiratory syncytial virus long A infected in human Hep2 cells assessed as reduction in virus-induced cytopathic effect measured after 6 days by CCK8 assay; format: functional, cell-based, Respiratory syncytial virus type A; details: HEp-2, 144 h
Only the number, expressed in nM, is required.

Sample records with EC50:
                         compound_structure  numeric_result
0      CC(=O)N1CCN(c2cc(NCCN)c3ccccc3n2)CC1             317
1  CNCCNc1cc(N2CCN(C(=O)C(C)(C)c3ccccc3)CC2)nc2ccccc12              33

Sure, the documented EC50 for CC(C)CC(=O)N1CCN(c2cc(NCCN)c3ccccc3n2)CC1 is 1880

Sure, the documented EC50 for NCCNc1cc(N2CCN(C(=O)Cc3cccc(F)c3)CC2)nc2ccccc12 is 80

Sure, the documented EC50 for NCCNc1cc(N2CCN(C(=O)C3(c4ccccc4)CCCC3)CC2)nc2ccccc12 is 3820

----------
Quick list: pEC50 per entry.
experiment: Antiviral activity against Respiratory syncytial virus long A infected in human Hep2 cells assessed as reduction in virus-induced cytopathic effect measured after 6 days by CCK8 assay; assay type: functional, cell-based, Respiratory syncytial virus type A; conditions: HEp-2, 144 h
Friendly reminder that pEC50 comes from taking -log10 of the concentration in mol/L.

Sample records with pEC50:
>>> print(df.to_string())
                                   compound  numeric_result
0  CC(C(=O)N1CCN(c2cc(NCCN)c3ccccc3n2)CC1)c1ccccc1 (centres undefined)            7.04
1  CN(C)CCNc1cc(N2CCN(C(=O)C(C)(C)c3ccccc3)CC2)nc2ccccc12            6.03
2  NCCNc1cc(N2CCN(C(=O)Cc3cccc(C(F)(F)F)c3)CC2)nc2ccccc12            6.25

Sure, the documented pEC50 for Cc1ccc(CC(=O)N2CCN(c3cc(NCCN)c4ccccc4n3)CC2)cc1 is 6.85

----------
assay: Antiviral activity against Respiratory syncytial virus long A infected in human Hep2 cells assessed as reduction in virus-induced cytopathic effect measured after 6 days by CCK8 assay; assay type: functional, cell-based, Respiratory syncytial virus type A; settings: HEp-2, 144 h
Please note: EC50 exactly at 0.6 µM is N. Only values below 0.6 µM get Y.

In [3]: df
Out[3]:
                                   compound  discrete_label
0  CC(C)(C(=O)N1CCN(c2cc(NCCN)c3ccccc3n2)CC1)c1ccccc1               Y

Consider the compound COc1ccc(CC(=O)N2CCN(c3cc(NCCN)c4ccccc4n3)CC2)cc1 . Is its EC50 strictly less than 0.6 µM?
N

Consider the compound NCCNc1cc(N2CCN(c3cccc(Cl)c3)CC2)nc2ccccc12 . Is its EC50 strictly less than 0.6 µM?
N

Consider the compound NCCNc1cc(N2CCN(C(=O)Cc3cc(F)cc(F)c3)CC2)nc2ccccc12 . Is its EC50 strictly less than 0.6 µM?
Y
